IC50 reference
molecular target: Akt1 (Homo sapiens); construct: unspecified tag, removed (detagged) (cleaved yes); purchased SignalChem and Proteros (Akt1); Merck Millipore (PDK1) 14-452 (PDK1); none given for Akt1; experiment: Akt activation assay (PDK1-mediated activation, LANCE Ultra crosstide TR-FRET), Akt1; type: biochemical; conditions: read-out: Biological Assay 1 IC50 (nM) Akt1
Sequence (P31749 whole entry): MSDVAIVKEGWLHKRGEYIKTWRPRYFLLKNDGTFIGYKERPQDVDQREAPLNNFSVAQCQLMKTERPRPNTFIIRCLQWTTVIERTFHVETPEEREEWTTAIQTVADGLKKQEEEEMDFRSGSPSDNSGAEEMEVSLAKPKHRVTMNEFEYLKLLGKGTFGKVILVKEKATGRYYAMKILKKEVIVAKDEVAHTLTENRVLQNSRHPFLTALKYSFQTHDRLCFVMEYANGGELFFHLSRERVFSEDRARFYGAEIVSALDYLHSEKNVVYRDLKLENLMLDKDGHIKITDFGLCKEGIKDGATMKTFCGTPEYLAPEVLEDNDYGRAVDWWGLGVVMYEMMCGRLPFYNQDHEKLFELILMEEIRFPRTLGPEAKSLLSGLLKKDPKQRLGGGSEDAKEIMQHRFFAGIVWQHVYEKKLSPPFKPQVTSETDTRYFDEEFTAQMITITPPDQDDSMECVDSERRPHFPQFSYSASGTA

>  <MOLECULE>
CC(=O)N(C)[C@H]1CC[C@H](CC(=O)Nc2cc(-c3ccsc3)c(-c3ccc(C4(N)CC4)c(F)c3)nn2)CC1 [Example 92]

>  <IC50>
> 30000 nM

$$$$
>  <MOLECULE>
COC1(OC)CCC(CC(=O)Nc2cnc(-c3ccc(C4(N)COC4)cc3)c(-c3ccccc3)c2)CC1 [Example 36]

>  <IC50>
> 30000 nM

$$$$
>  <MOLECULE>
CCC(=O)N(C)[C@H]1CC[C@H](CC(=O)Nc2cc(-c3ccccc3)c(-c3ccc(C4(N)CC4)cc3)nn2)CC1 [Example A91]

>  <IC50>
> 30000 nM

$$$$
>  <MOLECULE>
CC(=O)N(C)[C@H]1CC[C@H](CC(=O)Nc2cc(-c3ccccc3)c(-c3ccc([C@]4(N)C[C@H](F)C4)cc3)cn2)CC1 [Example A59]

>  <IC50>
> 30000 nM

$$$$
>  <MOLECULE>
CN(C(=O)C1CC1)[C@H]1CC[C@H](CC(=O)Nc2cc(-c3ccccc3)c(-c3ccc([C@]4(N)C[C@](C)(O)C4)cc3)nn2)CC1 [Example A78]

>  <IC50>
1900 nM

$$$$
>  <MOLECULE>
NC1(c2ccc(-c3nnc(NC(=O)C[C@H]4CC[C@H](N5CCOC5=O)CC4)cc3-c3ccccc3)cc2F)CC1 [Example A50]

>  <IC50>
> 30000 nM

$$$$
>  <MOLECULE>
COC(=O)N(C)[C@H]1CC[C@H](CC(=O)Nc2cc(-c3ccccc3)c(-c3ccc(C(C)(C)N)cc3)nn2)CC1 [Example 56]

>  <IC50>
> 30000 nM

$$$$
>  <MOLECULE>
CCOC(=O)N(C)[C@H]1CC[C@H](CC(=O)Nc2cc(-c3ccccc3)c(-c3ccc([C@]4(N)C[C@](C)(O)C4)cc3)nn2)CC1 [Example A80]

>  <IC50>
2400 nM

$$$$

Continue with the next molecule.
What does the data say about its IC50? Entry: CC(=O)N(C)[C@H]1CC[C@H](CC(=O)Nc2cc(-c3ccccc3)c(-c3ccc([C@]4(N)C[C@H](F)C4)cc3)nn2)CC1 [Example 46] 11000 nM
